system: UACC-257; assay: NCI tumour cell line growth inhibition, 48 h
Active and inactive are the calls of the source. Rule as the data show it: active = GI50 up to about 1.1 µM and inactive = higher.
Classes used: active, inactive

MOLECULE	CATEGORY_LABEL
N#Cc1c(-c2ccccc2)[nH]c(=O)n(C2OC(CO)C(O)C(O)C2O)c1=O (stereo not given)	inactive
C[n+]1c(-c2ccc(/C=N/Nc3n[nH]c(=S)n3N/N=C/c3ccc(-c4cn5ccccc5[n+]4C)cc3)cc2)cn2ccccc21	inactive
COC(=O)c1c2c(cc3c1CC1(Cc4cc5c(c(C=O)c4C1)CCCC5)C3)CCCC2 (stereo not given)	inactive
COC1=CC(=O)C(O)=C(CC2(C)C(C)CCC3(C)C2CCCC3(C)C)C1=O (stereo not given)	inactive
CN1C(=O)C(CC(=O)O)NC1=S (stereo not given)	inactive
Cc1c2c(n3c(nc4ccccc43)c1C#N)N(c1ccc(Cl)cc1)CC2	inactive
Nn1c(Cc2ccc([N+](=O)[O-])cc2)n[nH]c1=O	inactive
CC(=O)O[C@@H]1CO[C@H]2O[C@H]3[C@@H](C(C=O)=C[C@H](O)[C@@H]4C5=C(C(C)C)CC[C@]5(C)CC[C@@]34C)[C@@]2(O)C1=O	active
CCCC[C@@H]1CCN2C[C@@H](O)[C@@H](O)[C@@H]2[C@H]1O	inactive
O=C(O)c1ccccc1/C=C1\Cc2ccccc2C1=O	inactive

Cited source: ChEMBL document CHEMBL1201862
